target: CUG-BP2 RRM3 Y428A (UniProt O95319 416-508, Y428A;Y508W); assay: ITC; 25 C; 20 mM K phosphate pH 5.8, 10 mM NaCl, 0.1% beta-mercaptoethanol, 25 C (NMR titrations and ITC); hnRNP A1: 10 mM Na phosphate pH 6.5, 10 mM beta-mercaptoethanol; conditions: protein: recombinant; tags: His-tag (pET28a)
Sequence (O95319 416-508 Y428A/Y508W): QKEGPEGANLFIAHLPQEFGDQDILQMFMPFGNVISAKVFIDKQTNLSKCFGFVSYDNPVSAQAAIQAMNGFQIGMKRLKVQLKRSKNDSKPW
recorded.endpoint: pKd
Hey, just a heads up that pKd is the negative log base 10 of the concentration in molar.

Please look at this binder and report its pKd: UGUGU (ssRNA)
6.51
